Experiment: NCI Yeast Anticancer Drug Screen. Data for the bub3 strain (AID 167)
Conditions: S. cerevisiae bub3 mutant strain, at 5.0 µM (retest, dose inferred, filed as 0.5), stronger effect = higher value
The panel holds about 79,000 compounds, 15% with a hit somewhere; the sample as a whole holds those more often.
property measured: growth inhibition (%)
Write it as a number; the unit % goes unstated.

{"molecule": "Nc1cc(Cl)c2c(c1)Cc1ccccc1-2", "property measured": "growth inhibition", "observed": -6}
{"molecule": "O=c1c2ccccc2sc2c(CO)ccc(NCCN3CCCCC3)c12", "property measured": "growth inhibition", "observed": 12}
{"molecule": "Cc1nc2c(O)c3c(c(O)c2nc1C)C1C=CC3CC1", "property measured": "growth inhibition", "observed": 39}
{"molecule": "Cc1ccc(C(=O)/C=C/c2ccccc2)cc1", "property measured": "growth inhibition", "observed": 6}
{"molecule": "CC1CCC(NCCOC(=O)c2ccc([N+](=O)[O-])cc2)CC1 (stereo not given)", "property measured": "growth inhibition", "observed": -8}

If you can, please state the reported growth inhibition value of O=C(NCCl)Nc1ccccc1 . 6

If you can, please state the reported growth inhibition value of O=C1NC(=S)S/C1=C\c1ccc(F)cc1 . -2

If you can, please state the reported growth inhibition value of CCN(CC)CC(O)c1ccnc2c(O)cccc12 (stereo not given) . -6

If you can, please state the reported growth inhibition value of NC(=S)Nc1ccccc1O . 17

If you can, please state the reported growth inhibition value of Cc1ccc(/C=N/NS(=O)(=O)c2ccccc2)c(C)c1 . 3

---

Assay: NCI Yeast Anticancer Drug Screen. Data for the mlh1 rad18 strain (AID 175)
Conditions: S. cerevisiae mlh1 rad18 strain growth inhibition; at 50.0 µM
This is part of a sample that, as a whole, favours compounds with a hit. Of some 79,000 tested, about 15% had one in any assay. Active and inactive are the calls of the source. Rule as the data show it: active = growth inhibition above about 70%; inactive = the rest.
Outcomes you can answer with include only these: 1.0 = active, 0.0 = inactive

{"molecule": "CCc1cccc(CC)c1NC(=S)N/C=C(\\C#N)C(=O)c1ccc2ccccc2c1", "classification": 0.0}

// param item: O=[N+]([O-])c1c(O)cccc1O ; yields the recorded call 1.0

// param item: COc1cccc2c1C1c3ccccc3Sc3cccc(c31)O2 (stereo not drawn) ; yields the recorded call 0.0

// param item: O=C(c1cccs1)N(C(=S)N1CCN(c2ccccn2)CC1)c1ccccc1 ; yields the recorded call 0.0

// param item: COC(=O)/C=C(\Cl)C(=O)OC ; yields the recorded call 1.0

---

Collected growth inhibition values appear next to each entry.
Experiment: NCI Yeast Anticancer Drug Screen. Data for the mlh1 rad18 strain (AID 175)
Conditions: S. cerevisiae mlh1 rad18 strain growth inhibition; at 50.0 µM; stronger effect = higher value
The panel holds about 79,000 compounds, 15% with a hit somewhere; the sample as a whole holds those more often. Activity calls are given as the source filed them. No stated cut-off is given here; in the data, active means growth inhibition above about 70%; inactive means the rest.

{"compound": "S=C(Nc1ccc(Cl)c(Cl)c1)N1c2ccccc2-n2cccc2C1c1cccnc1 (centres undefined)", "observed": "87.8% (active)"}
{"compound": "Nc1nn2c(C(Br)Br)cc(C(Br)Br)nc2c1[N+](=O)[O-]", "observed": "99.5% (active)"}
{"compound": "CCOC(=O)Cc1csc(/N=C\\c2c(O)c3ccccc3oc2=O)n1", "observed": "41.4% (inactive)"}
{"compound": "NCC1CCNCC1", "observed": "-4% (inactive)"}
{"compound": "CN(C)N=Nc1c(-c2ccccc2)n[nH]c1-c1ccccc1", "observed": "99.5% (active)"}

If you can, please state the reported growth inhibition value of Cc1cc(NC(=S)SC(C)C)ccc1Br . 99.3% (active)

If you can, please state the reported growth inhibition value of Cc1ccc(C(CN)(CCBr)c2ccc(C)cc2)cc1 . 99.5% (active)

If you can, please state the reported growth inhibition value of CC(C)C1=C(O)C2=C(C(=O)C1=O)C1(C)CCCC(C)(C)C1C(O)C2OC=O (centres undefined) . 87.5% (active)

If you can, please state the reported growth inhibition value of Clc1ccc(-c2nnn3ccccc23)cc1 . 94.1% (active)

If you can, please state the reported growth inhibition value of F[Si](c1ccccc1)(c1ccccc1)c1ccccc1 . 79.5% (active)

If you can, please state the reported growth inhibition value of COc1ccc2c(c1)[n+]([O-])c(-c1ccc(Cl)c(Cl)c1)c(N)[n+]2[O-] . 99.4% (active)
